- assayed.system: human ACC2 (Homo sapiens, UniProt O00763)
- Construct: made in house; host or cells: insect cells (baculoviral expression system)
- Sequence (O00763 129-2458 limits assumed): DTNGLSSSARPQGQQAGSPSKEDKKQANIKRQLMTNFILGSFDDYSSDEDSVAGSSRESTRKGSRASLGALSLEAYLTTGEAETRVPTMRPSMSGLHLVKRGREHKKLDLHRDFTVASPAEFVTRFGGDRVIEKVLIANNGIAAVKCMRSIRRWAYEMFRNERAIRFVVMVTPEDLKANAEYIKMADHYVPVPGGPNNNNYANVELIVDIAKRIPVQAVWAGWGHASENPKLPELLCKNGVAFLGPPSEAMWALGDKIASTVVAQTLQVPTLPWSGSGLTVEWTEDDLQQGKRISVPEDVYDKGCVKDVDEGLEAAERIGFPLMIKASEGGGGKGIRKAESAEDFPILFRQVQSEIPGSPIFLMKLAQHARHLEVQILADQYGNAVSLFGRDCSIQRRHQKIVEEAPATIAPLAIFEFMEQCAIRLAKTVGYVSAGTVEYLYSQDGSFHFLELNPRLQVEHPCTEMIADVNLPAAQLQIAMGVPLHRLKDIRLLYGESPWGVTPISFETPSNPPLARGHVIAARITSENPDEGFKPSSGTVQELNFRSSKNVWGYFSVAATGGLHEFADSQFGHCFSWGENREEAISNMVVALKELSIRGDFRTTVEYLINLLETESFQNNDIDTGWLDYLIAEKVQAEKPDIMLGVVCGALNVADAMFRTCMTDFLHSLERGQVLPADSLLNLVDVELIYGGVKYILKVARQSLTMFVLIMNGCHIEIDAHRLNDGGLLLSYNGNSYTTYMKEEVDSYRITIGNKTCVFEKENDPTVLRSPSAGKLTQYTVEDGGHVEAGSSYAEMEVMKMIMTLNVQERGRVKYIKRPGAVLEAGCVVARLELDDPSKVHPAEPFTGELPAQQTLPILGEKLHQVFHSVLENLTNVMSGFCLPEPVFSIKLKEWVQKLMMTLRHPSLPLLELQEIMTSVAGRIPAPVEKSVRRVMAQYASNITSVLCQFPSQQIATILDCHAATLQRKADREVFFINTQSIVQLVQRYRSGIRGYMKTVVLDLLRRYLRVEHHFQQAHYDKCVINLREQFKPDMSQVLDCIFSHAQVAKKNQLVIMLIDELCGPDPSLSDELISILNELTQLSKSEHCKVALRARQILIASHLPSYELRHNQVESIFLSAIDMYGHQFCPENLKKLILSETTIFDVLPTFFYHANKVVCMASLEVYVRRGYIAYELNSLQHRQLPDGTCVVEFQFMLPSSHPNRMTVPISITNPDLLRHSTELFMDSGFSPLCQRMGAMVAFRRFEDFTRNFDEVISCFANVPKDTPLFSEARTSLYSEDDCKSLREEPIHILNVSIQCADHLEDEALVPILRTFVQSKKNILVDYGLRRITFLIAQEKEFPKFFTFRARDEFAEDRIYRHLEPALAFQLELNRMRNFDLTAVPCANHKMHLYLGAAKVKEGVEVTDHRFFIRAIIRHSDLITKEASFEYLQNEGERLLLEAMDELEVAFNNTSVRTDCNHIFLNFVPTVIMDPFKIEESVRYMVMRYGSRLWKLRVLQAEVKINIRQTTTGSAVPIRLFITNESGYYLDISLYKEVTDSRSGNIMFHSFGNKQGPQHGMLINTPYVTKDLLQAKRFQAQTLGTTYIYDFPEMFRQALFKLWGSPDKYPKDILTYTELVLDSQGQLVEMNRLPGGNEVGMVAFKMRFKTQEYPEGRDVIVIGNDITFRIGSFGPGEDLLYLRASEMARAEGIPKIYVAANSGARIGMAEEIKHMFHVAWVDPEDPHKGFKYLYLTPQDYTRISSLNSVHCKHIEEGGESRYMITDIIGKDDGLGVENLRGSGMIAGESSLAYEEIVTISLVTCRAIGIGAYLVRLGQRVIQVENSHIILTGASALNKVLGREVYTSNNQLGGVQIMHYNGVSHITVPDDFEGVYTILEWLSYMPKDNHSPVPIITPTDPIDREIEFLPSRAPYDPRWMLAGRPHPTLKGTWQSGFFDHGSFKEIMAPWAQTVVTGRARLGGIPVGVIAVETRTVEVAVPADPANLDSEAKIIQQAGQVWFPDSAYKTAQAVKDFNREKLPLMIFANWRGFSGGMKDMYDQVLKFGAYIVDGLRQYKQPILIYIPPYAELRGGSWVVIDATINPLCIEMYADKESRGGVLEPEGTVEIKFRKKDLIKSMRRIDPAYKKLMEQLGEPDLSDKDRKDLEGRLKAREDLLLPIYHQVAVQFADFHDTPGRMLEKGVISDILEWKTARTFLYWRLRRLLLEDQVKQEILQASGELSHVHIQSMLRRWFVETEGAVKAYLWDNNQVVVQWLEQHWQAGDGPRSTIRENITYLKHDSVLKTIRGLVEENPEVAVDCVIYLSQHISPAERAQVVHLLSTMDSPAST
- procedure.summary: ACC2 assay, spectrophotometric 384 well assay (NADH-linked, coupled lactate dehydrogenase/pyruvate kinase)
- Assay type: biochemical
- experimental.setup: ACC2 assay, hACC2 construct lacking 128 N-terminal amino acids, 25° C., 340 nm; read-out: IC50
Lab note: compare IC50 with 400 nM, writing 1.0 if less and 0.0 if equal or more.

Example entries and their recorded answers appear below.
>  <molecule>
CC(=O)N[C@@H](C)c1ccc(C2CCN(c3ncc(-c4cc(C)ccn4)cn3)CC2)cc1 [Example 10.122]

>  <assayed.system>
human ACC2 (Homo sapiens, UniProt O00763)

>  <label.value>
1.0

$$$$
>  <molecule>
CCOCCOc1cccc(N2CCC(c3ccc([C@H](C)NC(C)=O)cc3)CC2)c1 [Example 8.2]

>  <assayed.system>
human ACC2 (Homo sapiens, UniProt O00763)

>  <label.value>
1.0

$$$$
>  <molecule>
COc1cc(OC)cc(-c2cnc(N3CCC(c4ccc([C@H](C)NC(C)=O)cc4)CC3)nc2)c1 [Example 10.34]

>  <assayed.system>
human ACC2 (Homo sapiens, UniProt O00763)

>  <label.value>
1.0

$$$$

### Prompt State whether 400 nM exceeds IC50 recorded for CC(=O)N[C@@H](C)c1ccc(C2CCN(c3cc(NC4CC4)ncn3)CC2)cc1 [Example 11.132] .
### Response 0.0

### Prompt Confirm or reject: IC50 of CC(=O)N[C@@H](C)c1ccc(C2CCN(c3ncc(-c4ccncc4)cn3)CC2)cc1 [Example 10.16] lies strictly below 400 nM
### Response 0.0

### Prompt Hello, is IC50 of the following molecule strictly smaller than 400 nM? CC(=O)N[C@@H](C)c1ccc(C2CCN(c3ncc(C(=O)Nc4ccccn4)cn3)CC2)cc1 [Example 18.15]
### Response 0.0

### Prompt Confirm or reject: IC50 of CC(=O)N[C@@H](C)c1ccc(C2CCN(c3ccc(C(C)(C)C)nc3)CC2)cc1 [Example 15.12] lies strictly below 400 nM
### Response 0.0

### Prompt Determine if COc1cc(N2CCC(c3ccc([C@H](C)NC(C)=O)cc3)CC2)ccc1OC1CCCC1 [Example 8.38] shows IC50 strictly lower than 400 nM.
### Response 0.0

### Prompt Please check: IC50 for CC(=O)N[C@@H](C)c1ccc(C2CCN(c3ccnc(OCCC4CC4)c3)CC2)cc1 [Example 19.12] , strictly under 400 nM or not?
### Response 1.0

### Prompt Here's an entry: CC(=O)N[C@@H](C)c1ccc(C2CCN(c3nc4ccccc4nc3C)CC2)cc1 [Example 4.32] . Is its IC50 below 400 nM?
### Response 0.0

----------
Overview of recorded log10 of IC50 for various compounds
- assayed.system: human ACC2 (Homo sapiens, UniProt O00763)
- Construct: made in house; host or cells: insect cells (baculoviral expression system)
- procedure.summary: ACC2 assay, spectrophotometric 384 well assay (NADH-linked, coupled lactate dehydrogenase/pyruvate kinase)
- Type: biochemical
- experimental.setup: ACC2 assay, hACC2 construct lacking 128 N-terminal amino acids, 25° C., 340 nm; read-out: IC50
Hey, these are logged values: log10 of IC50, nM being the unit before logging.

Use the examples below as a reference point.
>  <compound>
CC(=O)N[C@@H](C)c1ccc(C2CCN(c3ccnc(OCC4CC4)c3)CC2)cc1 [Example 19.10]

>  <log10 of IC50>
2.00

$$$$
>  <compound>
CCNC(=O)c1cccc(N2CCC(c3ccc([C@H](C)NC(C)=O)cc3)CC2)c1 [Example 29.3]

>  <log10 of IC50>
3.83

$$$$
>  <compound>
CC(=O)N[C@@H](C)c1ccc(C2CCN(c3cc(O[C@H]4CCOC4)ncn3)CC2)cc1 [Example 11.17]

>  <log10 of IC50>
3.08

$$$$
>  <compound>
COc1ccc(-c2cnc(N3CCC(c4ccc([C@H](C)NC(C)=O)cc4)CC3)nc2)cc1C [Example 10.30]

>  <log10 of IC50>
2.11

$$$$
>  <compound>
CC(=O)N[C@@H](C)c1ccc(C2CCN(c3ncc(-c4ccc(C#N)cc4)cn3)CC2)cc1 [Example 10.10]

>  <log10 of IC50>
1.85

$$$$

### Prompt Identify measured log10 of IC50 corresponding to CCOc1ccc(N2CCC(c3ccc([C@H](C)NC(C)=O)cc3)CC2)nc1 [Example 5.1]
### Response 2.30

### Prompt Please give measured log10 of IC50 of the following entry: CC(=O)N[C@@H](C)c1ccc(C2CCN(c3ncc(-c4cccc(C)c4)cn3)CC2)cc1 [Example 10.7]
### Response 1.60

### Prompt Determine its reported log10 of IC50: CC(=O)N[C@@H](C)c1ccc(C2CCN(c3ccc(OCC(C)C)c(Cl)c3)CC2)cc1 [Example 8.30]
### Response 2.20

### Prompt Specify log10 of IC50 for CCNc1nccc(N2CCC(c3ccc([C@H](C)NC(C)=O)cc3)CC2)n1 [Example 11.50] and stop.
### Response 3.62

### Prompt Quote log10 of IC50 reported for C[C@H](NC(=O)C1CC1)c1ccc(C2CCN(c3cc(OC4CCC4)ncn3)CC2)cc1 [Example 20.2] please.
### Response 2.34

----------
- assayed.system: human ACC2 (Homo sapiens, UniProt O00763)
- Construct: made in house; host or cells: insect cells (baculoviral expression system)
- procedure.summary: ACC2 assay, spectrophotometric 384 well assay (NADH-linked, coupled lactate dehydrogenase/pyruvate kinase)
- Format: biochemical
- experimental.setup: ACC2 assay, hACC2 construct lacking 128 N-terminal amino acids, 25° C., 340 nm; read-out: IC50
pIC50: −log10 of the molar value.
Respond with label 1 for pIC50 values of 6 and above, label 0 for values below.

The examples below pair each entry with its known result.
>  <compound.structure>
CC(=O)N[C@@H](C)c1ccc(C2CCN(c3cnn(Cc4ccccc4)c3)CC2)cc1

>  <label.value>
label 0

$$$$
>  <compound.structure>
CC(=O)N[C@@H](C)c1ccc(C2CCN(c3ccnc(O[C@@H]4CCOC4)c3)CC2)cc1

>  <label.value>
label 1

$$$$
>  <compound.structure>
CC(=O)N[C@@H](C)c1ccc(C2CCN(c3ccnc(N4CCc5ccccc54)n3)CC2)cc1

>  <label.value>
label 1

$$$$
>  <compound.structure>
COc1cnc(N2CCC(c3ccc([C@H](C)NC(C)=O)cc3)CC2)nc1

>  <label.value>
label 1

$$$$
>  <compound.structure>
CC(=O)N[C@@H](C)c1ccc(C2CCN(c3ncc(C(=O)NCc4ncccn4)cn3)CC2)cc1

>  <label.value>
label 0

$$$$

### Prompt Evaluate CC(=O)N[C@@H](C)c1ccc(C2CCN(c3ncc(C(=O)N4CCN(C(C)=O)CC4)cn3)CC2)cc1 : pIC50 at minimum 6?
### Response label 0

### Prompt Is reported pIC50 greater than or equal to 6 here: CC(=O)N[C@@H](C)c1ccc(C2CCN(c3ccnc(OCc4ccccc4)c3)CC2)cc1
### Response label 1

----------
- assayed.system: human ACC2 (Homo sapiens)
- Construct: made in house; host or cells: insect cells (baculoviral expression system)
- procedure.summary: ACC2 assay, spectrophotometric 384 well assay (NADH-linked, coupled lactate dehydrogenase/pyruvate kinase)
- Type: biochemical
- experimental.setup: ACC2 assay, hACC2 construct lacking 128 N-terminal amino acids, 25° C., 340 nm; read-out: IC50
Checkbox rule: IC50 lower than 200 nM = fulfilled; IC50 not lower than 200 nM = not fulfilled.

Here are 10 compounds together with their reported answers.
>  <compound>
CCC(=O)N[C@@H](C)c1ccc(C2CCN(c3ccc(OCC(C)C)cc3)CC2)cc1

>  <label.value>
fulfilled

$$$$
>  <compound>
CC(=O)N[C@@H](C)c1ccc(C2CCN(c3ccc(-c4ccc5c(c4)OCO5)cn3)CC2)cc1

>  <label.value>
fulfilled

$$$$
>  <compound>
CC(=O)N[C@@H](C)c1ccc(C2CCN(c3ccnc(OC4CCCC4)c3)CC2)cc1

>  <label.value>
fulfilled

$$$$
>  <compound>
COc1cc(N2CCC(c3ccc([C@H](C)NC(C)=O)cc3)CC2)ccn1

>  <label.value>
not fulfilled

$$$$
>  <compound>
CC(=O)N[C@@H](C)c1ccc(C2CCN(c3ccc(OCCC(C)C)cc3)CC2)cc1

>  <label.value>
fulfilled

$$$$
>  <compound>
CC(=O)N[C@@H](C)c1ccc(C2CCN(c3ncc4nc(-c5ccncc5)oc4n3)CC2)cc1

>  <label.value>
fulfilled

$$$$
>  <compound>
CC(=O)N[C@@H](C)c1ccc(C2CCN(c3ncc(C(=O)NCC(O)C(F)(F)F)cn3)CC2)cc1 (stereo partly shown)

>  <label.value>
not fulfilled

$$$$
>  <compound>
CC(=O)N[C@@H](C)c1ccc(C2CCN(c3nccc(C4CC4)c3C)CC2)cc1

>  <label.value>
fulfilled

$$$$
>  <compound>
CC(=O)N[C@@H](C)c1ccc(C2CCN(c3ncc(C(=O)NC4CC4(F)F)cn3)CC2)cc1 (stereo partly shown)

>  <label.value>
not fulfilled

$$$$
>  <compound>
CC(=O)N[C@@H](C)c1ccc(C2CCN(c3ncc(-c4ccc5c(c4)OCO5)cc3F)CC2)cc1

>  <label.value>
fulfilled

$$$$

### Prompt Is IC50 strictly under 200 nM for the entry CC(=O)N[C@@H](C)c1ccc(C2CCN(c3ccc4oc(C(C)C)nc4c3)CC2)cc1 ?
### Response not fulfilled

### Prompt Strictly below 200 nM in IC50? CC(=O)N[C@@H](C)c1ccc(C2CCN(c3cccc(OCC4CCCCO4)c3)CC2)cc1 (stereo partly shown)
### Response not fulfilled

### Prompt Determine if COc1cc2ccnc(N3CCC(c4ccc([C@H](C)NC(C)=O)cc4)CC3)c2cc1OC shows IC50 strictly lower than 200 nM.
### Response not fulfilled

### Prompt Say whether its IC50 is strictly beneath 200 nM. Entry: CC(=O)N[C@@H](C)c1ccc(C2CCN(c3ncc(C(=O)NC[C@H](O)CO)cn3)CC2)cc1
### Response not fulfilled

### Prompt Identify whether the compound CCOc1ccc(N2CCC(c3ccc(CC(C)NC(C)=O)cc3)CC2)c(F)c1 (stereo not shown) records IC50 below 200 nM.
### Response not fulfilled

Source: patent US9006450B2
